- Tested on: rodent lifetime carcinogenesis bioassay, tumor incidence TD50
- test.method.notes: carcinogenic potency in animals, long-term in vivo studies, CPDB compilation (AID 1745844)
- measurement.context: rat; strain Sprague-Dawley; males; inhaled; site: any site (literature study); lesion: several types; types named in the paper; dosed 52 weeks; study length 139 weeks
recorded.endpoint: TD50

Query block: Using the record for C=CCl , report its TD50.
Result block: 8.67 mg/kg/day

* * *

- Tested on: rodent lifetime carcinogenesis bioassay, tumor incidence TD50
- test.method.notes: carcinogenic potency in animals, long-term in vivo studies, CPDB compilation (AID 1745844)
- measurement.context: mouse; strain B6C3F1; females; inhaled; site: liver; lesion: several types; types named in the paper; dosed 104 weeks; study length 104 weeks
Calls of active or inactive are those of the source. No rule for the calls is given here.
Write down one outcome, taken from 1.0 (active), 0.0 (inactive)

ClC=CCCl 0.0

Query block: Just curious, what result did ClCCl get here?
Result block: 1.0

* * *

- Tested on: rodent lifetime carcinogenesis bioassay, tumor incidence TD50
- test.method.notes: carcinogenic potency in animals, long-term in vivo studies, CPDB compilation (AID 1745844)
- measurement.context: mouse; strain B6C3F1; females; in drinking water; site: liver; lesion: hepatocellular carcinoma; dosed 103 weeks; study length 104 weeks
recorded.endpoint: TD50

Query block: Give its TD50 value. Item: Nc1ccc(Cc2ccc(N)cc2)cc1
Result block: 137 mg/kg/day

* * *

- Test system: rodent lifetime carcinogenesis bioassay, tumor incidence TD50
- test.method.notes: carcinogenic potency in animals, long-term in vivo studies, CPDB compilation (AID 1745844)
- measurement.context: rat; strain Fischer 344; females; by gavage; site: lung; lesion: alveolar/bronchiolar adenoma + alveolar/bronchiolar carcinoma; dosed 103 weeks; study length 104 weeks
recorded.endpoint: TD50 (mg/kg/day)
Lab book: enter the figure in mg/kg/day, no units written.

Query block: Find the measured TD50: item c1ccc2occc2c1 , target or system rodent lifetime carcinogenesis bioassay, tumor incidence TD50.
Result block: 418

* * *

- Test system: rodent lifetime carcinogenesis bioassay, tumor incidence TD50
- test.method.notes: carcinogenic potency in animals, long-term in vivo studies, CPDB compilation (AID 1745844)
- measurement.context: mouse; strain B6C3F1; females; by gavage; site: all sites + lung + myocardium + stomach; lesion: lymphoma + alveolar/bronchiolar adenoma + alveolar/bronchiolar carcinoma + sarcoma, NOS + squamous-cell carcinoma; dosed 52 weeks; study length 84 weeks
recorded.endpoint: TD50 (mg/kg/day)
Quick reminder: number only, in mg/kg/day, skip the unit.

Query block: Can you look up the measured TD50 of C[C@]12CC[C@@H]3c4ccc(OC(=O)Cc5ccc(N(CCCl)CCCl)cc5)cc4CC[C@H]3[C@@H]1CC[C@@H]2OC(=O)Cc1ccc(N(CCCl)CCCl)cc1 for me?
Result block: 0.682

* * *

- System: rodent lifetime carcinogenesis bioassay, tumor incidence TD50
- test.method.notes: carcinogenic potency in animals, long-term in vivo studies, CPDB compilation (AID 1745844)
- measurement.context: mouse; strain B6C3F1; females; in drinking water; site: any site (literature study); lesion: several types; types named in the paper; dosed 90 weeks; study length 90 weeks
recorded.endpoint: TD50 (mg/kg/day)
Express the result in mg/kg/day but write the number alone.

Query block: Which TD50 value belongs to C1COCCO1 ?
Result block: 847

* * *

- Tested on: rodent lifetime carcinogenesis bioassay, tumor incidence TD50
- test.method.notes: carcinogenic potency in animals, long-term in vivo studies, CPDB compilation (AID 1745844)
- measurement.context: rat; strain ACI; males; in feed; site: cecum; lesion: adenoma; dosed 121 weeks; study length 121 weeks
The source made the active and inactive calls. No rule for the calls is given here.
recorded.endpoint: TD50

Query block: Fill in: TD50 of O=c1c(O)c(-c2ccc(O)c(O)c2)oc2cc(O)cc(O)c12 is ___
Result block: 72300 mg/kg/day (inactive)
